test system: SF-295; assay: Growth inhibition of human SF295 cells by sulforhodamine B assay; type: functional; details: read-out: LC50 (the source's name)
OBSERVATION TYPE: CC50 (µM)
Report the figure in µM without appending any unit label.

- MOLECULE: "CC1(C)C[C@@H](O)[C@]2(C(=O)O)CC[C@]3(C)C(=CC[C@@H]4[C@@]5(C)C/C(=C\\C=C\\c6ccccc6)C(=O)C(C)(C)[C@@H]5CC[C@]43C)[C@@H]2C1"
  TGT: "SF-295"
  UNIT NAME: "µM"
  CC50: 49.8
- MOLECULE: "C/C=C(/C)C(=O)O[C@@H]1CC(C)(C)C[C@H]2C3=CC[C@@H]4[C@@]5(C)CC[C@H](O)C(C)(C)[C@@H]5CC[C@@]4(C)[C@]3(C)CC[C@@]12C(=O)O [Reduced Lantadene A]"
  TGT: "SF-295"
  UNIT NAME: "µM"
  CC50: 7.74
- MOLECULE: "CC(C)=CC(=O)O[C@@H]1CC(C)(C)C[C@H]2C3=CC[C@@H]4[C@@]5(C)CC[C@H](O)C(C)(C)[C@@H]5CC[C@@]4(C)[C@]3(C)CC[C@@]12C(=O)O [Reduced Lantadene B]"
  TGT: "SF-295"
  UNIT NAME: "µM"
  CC50: 52.8

# input for lookup
Consider the molecule CC(C)=CC(=O)O[C@@H]1CC(C)(C)C[C@H]2C3=CC[C@@H]4[C@@]5(C)CCC(=O)C(C)(C)[C@@H]5CC[C@@]4(C)[C@]3(C)CC[C@@]12C(=O)O and give its measured CC50. 72.7

----------
tested on: OVCAR-8; assay: Growth inhibition of human OVCAR8 cells by sulforhodamine B assay; format: functional; settings: read-out: pGI50 (converted)
// GI50 lookup, one value per entry
Report the figure in µM without appending any unit label.

- COMPOUND STRING: "C/C=C(/C)C(=O)O[C@@H]1CC(C)(C)C[C@H]2C3=CC[C@@H]4[C@@]5(C)CC[C@H](O)C(C)(C)[C@@H]5CC[C@@]4(C)[C@]3(C)CC[C@@]12C(=O)O"
  TGT: "OVCAR-8"
  GI50, µM: 1.91
- COMPOUND STRING: "C/C=C(/C)C(=O)O[C@@H]1CC(C)(C)C[C@H]2C3=CC[C@@H]4[C@@]5(C)CCC(=O)C(C)(C)[C@@H]5CC[C@@]4(C)[C@]3(C)CC[C@@]12C(=O)O"
  TGT: "OVCAR-8"
  GI50, µM: 5.01
- COMPOUND STRING: "CC1(C)C[C@@H](O)[C@]2(C(=O)O)CC[C@]3(C)C(=CC[C@@H]4[C@@]5(C)C/C(=C\\C=C\\c6ccccc6)C(=O)C(C)(C)[C@@H]5CC[C@]43C)[C@@H]2C1"
  TGT: "OVCAR-8"
  GI50, µM: 3.39
- COMPOUND STRING: "CC(C)=CC(=O)O[C@@H]1CC(C)(C)C[C@H]2C3=CC[C@@H]4[C@@]5(C)CCC(=O)C(C)(C)[C@@H]5CC[C@@]4(C)[C@]3(C)CC[C@@]12C(=O)O"
  TGT: "OVCAR-8"
  GI50, µM: 3.8

# input for lookup
Consider the compound CC(C)=CC(=O)O[C@@H]1CC(C)(C)C[C@H]2C3=CC[C@@H]4[C@@]5(C)CC[C@H](O)C(C)(C)[C@@H]5CC[C@@]4(C)[C@]3(C)CC[C@@]12C(=O)O and give its measured GI50. 4.68
